target: ERK protein (Mus musculus); experiment: TdF (Temperature Dependence Fluorescence, thermal shift) assay for ERK; type: binding; details: 3 μM ERK protein, uncertainty estimated ±50%, read-out: Kd TdF
Sequence (P63085 2-358 limits assumed): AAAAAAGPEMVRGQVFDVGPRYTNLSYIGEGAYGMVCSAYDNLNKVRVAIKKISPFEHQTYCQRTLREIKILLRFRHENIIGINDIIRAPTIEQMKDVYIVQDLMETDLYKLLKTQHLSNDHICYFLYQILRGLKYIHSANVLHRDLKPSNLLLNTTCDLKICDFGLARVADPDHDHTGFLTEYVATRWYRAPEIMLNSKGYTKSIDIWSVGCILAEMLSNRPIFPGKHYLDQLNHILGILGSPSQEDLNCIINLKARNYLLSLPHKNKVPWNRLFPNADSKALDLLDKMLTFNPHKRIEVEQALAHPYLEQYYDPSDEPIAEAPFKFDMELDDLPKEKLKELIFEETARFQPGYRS
Each entry belongs to exactly one class, chosen by where its Kd falls: bin A: < 0.5 nM; bin B: ≥ 0.5 nM and < 2 nM; bin C: ≥ 2 nM

// known answers, use as guide
COc1cccc(F)c1CN1CCC[C@@H](NC(=O)c2ccc3[nH]nc(-c4ccc(C(C)=O)cc4)c3c2)C1 : bin B
O=C(N[C@@H]1CCCN(Cc2nccs2)C1)c1ccc2[nH]nc(-c3ccc4c(c3)CCO4)c2c1 : bin C

Switching to the query record.
## Input Just checking, what class would you give COc1cccc(F)c1CN1CCC[C@@H](NC(=O)c2ccc3[nH]nc(-c4ccnc(C)c4)c3c2)C1 here?
## Output bin A
